- tested.system: T1, OX40 on a functional cell line overexpressing OX40 (UniProt P43489 29-277, limits assumed)
- T1 sequence (looked up): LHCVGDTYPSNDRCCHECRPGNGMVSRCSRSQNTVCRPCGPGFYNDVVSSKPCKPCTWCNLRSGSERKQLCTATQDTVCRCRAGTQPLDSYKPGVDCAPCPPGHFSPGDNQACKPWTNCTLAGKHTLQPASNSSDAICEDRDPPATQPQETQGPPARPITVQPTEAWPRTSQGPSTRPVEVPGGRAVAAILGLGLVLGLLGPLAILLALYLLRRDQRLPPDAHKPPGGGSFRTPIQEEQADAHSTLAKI
- experimental.details: cell-based or functional assay
quantity.kind: IL-8 secretion by OX40 overexpressing functional cell line, best-fit value Top

1. AH02913 humanized anti-human OX40 monoclonal antibody (recombinant human IgG1/kappa) (antibody, V domains shown) VH: QVQLVQSGPEVKKPGASVKVSCKASGYTFTDYSMHWVKQAPGQGLEWMGWISTETGEPTYADDFKGRVTITLDTSASTAYMELSSLRSEDTAVYFCARVRPWYLAVWGQGTLVTVSS VL: DIQMTQSPSSLSASVGDRVTITCRASQDISNYLNWYQQKPGKAVKLLIYYTSRLYSGVPSRFSGSGSGTDYTFTISSLQPEDIATYFCQQANTLPLTFGGGTKLEIK: 24200
2. AH02921 humanized anti-human OX40 monoclonal antibody (recombinant human IgG1/kappa) (antibody, V domains shown) VH: QVQLVQSGPEVKKPGASVKVSCKASGYTFTDYSMHWVRQAPGQGLEWMGWISTETGEPTYADDFKGRFTITLDTSASTAYLEISSLRSEDTAVYFCARVRPWYLTVWGQGTLVTVSS VL: DIQMTQSPSSLSASVGDRVTITCRASQDISNYLNWYQQKPGKAPKLLIYYTSRLYSGVPSRFSGSGSGTDYTLTISSLQPEDIATYFCQQANTLPLTFGGGTKLEIK: 19500
3. AH02916 humanized anti-human OX40 monoclonal antibody (recombinant human IgG1/kappa) (antibody, V domains shown) VH: QVQLVQSGAEVKKPGASVKVSCKASGYTFTDYSMHWVKQAPGQGLEWMGWISTETGEPTYADDFKGRVTITLDTSASTAYMELSSLRSEDTAVYYCARVRPWYLAVWGQGTLVTVSS VL: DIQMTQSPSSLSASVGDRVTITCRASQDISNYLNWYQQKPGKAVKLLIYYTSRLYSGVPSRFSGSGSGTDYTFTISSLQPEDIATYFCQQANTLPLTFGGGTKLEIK: 24600
4. AH02919 humanized anti-human OX40 monoclonal antibody (recombinant human IgG1/kappa) (antibody, V domains shown) VH: QVQLVQSGAEVKKPGASVKVSCKASGYTFTDYSMHWVKQAPGQGLEWMGWISTETGEPTYADDFKGRVTITRDTSASTAYLEISSLRSEDTAVYFCARVRPWYLAVWGQGTLVTVSS VL: DIQMTQSPSSLSASVGDRVTITCRASQDISNYLNWYQQKPGKAVKLLIYYTSRLYSGVPSRFSGSGSGTDYTLTISSLQPEDIATYYCQQANTLPLTFGGGTKLEIK: 19000
